- Test system: S. haemolyticus AVAH 88-3
- assay.details: MIC, agar dilution
- Type: cell-based
- conditions.used: S. hemolyticus AVHAH 88-3; Table IA; unit assumed

compound | Antibacterial activity (MIC)
CCN(CC)CC(=O)Nc1cc(N(C)C)c2c(c1O)C(=O)C1=C(O)[C@]3(O)C(=O)C(C(N)=O)=C(O)[C@@H](N(C)C)C3CC1C2.Cl.Cl (stereo partly drawn) | 0.5 µg/mL
CN(C)c1cc(NC(=O)CNCc2ccccc2)c(O)c2c1CC1CC3C(N(C)C)C(O)=C(C(N)=O)C(=O)C3(O)C(O)=C1C2=O.Cl.Cl (stereo not drawn) | 2 µg/mL
CC(C(=O)Nc1cc(N(C)C)c2c(c1O)C(=O)C1=C(O)C3(O)C(=O)C(C(N)=O)=C(O)C(N(C)C)C3CC1C2)N1CCCC1.Cl.Cl (stereo not drawn) | 0.5 µg/mL
